System: Caco-2
TEST DESCRIPTION: Permeability from apical to basolateral side of human Caco-2 cell membrane
Format: ADME, cell-based
I would appreciate it if you labelled entries TRUE when permeability is 30% or higher, otherwise FALSE.

# COMPOUND, ASSIGNED LABEL
measured = [
    ("ClCCOc1ccc2c(-c3c(-c4ccccn4)nn4c3CCC4)ccnc2c1", "TRUE"),
    ("c1ccc(-c2nn3c(c2-c2ccnc4cc(OCCN5CCOCC5)ccc24)CCC3)nc1", "FALSE"),
    ("CCN(C)CCOc1ccc2c(-c3c(-c4ccccn4)nn4c3CCC4)ccnc2c1", "FALSE"),
    ("c1ccc(-c2n[nH]cc2-c2ccnc3ccccc23)nc1", "TRUE"),
    ("CN1CCN(CCCOc2ccc3c(-c4c(-c5ccccn5)nn5c4CCC5)ccnc3c2)CC1", "FALSE"),
    ("CN(C)CCOc1ccc2c(-c3c(-c4ccccn4)nn4c3CCC4)ccnc2c1", "FALSE"),
    ("c1ccc(-c2nn3c(c2-c2ccnc4cc(OCC5CCCO5)ccc24)CCC3)nc1 (configuration not stated)", "TRUE"),
]

The origin of these recorded values is ChEMBL document CHEMBL1144852.
